Assay procedure: chemical genetic growth profiling, strain panel (AID 1159580);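 also: tested at 20 µM; growth read once vehicle control cultures reached saturation at 30 °C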
Assay context: S. cerevisiae deletion strains, growth OD, locus YJR075W, strain HOC1, stronger effect = lower value
In all, about 5,500 compounds went through this assay and about 2,000 (36%) were called active. Not shown: some 18% with an inconclusive outcome. Some of the results follow.
Lab note: cut-off is 1. Strictly less in normalized growth is true. Exactly 1 or more is false.

is_below(normalized growth, 1) for CC(=O)N1CCN(c2ccc(OCC3CO[C@](Cn4ccnc4)(c4ccc(Cl)cc4Cl)O3)cc2)CC1 (stereo partly drawn) ?
true

is_below(normalized growth, 1) for N#CC(=C(\N)Sc1ccccc1N)/C(C#N)=C(/N)Sc1ccccc1N ?
true

is_below(normalized growth, 1) for C[C@@H]1CCC2[C@](C)(CO)[C@@H](O)CC[C@]2(C)[C@@]12CC[C@@](CO)(CCO)O2 (stereo partly drawn) ?
false

is_below(normalized growth, 1) for Oc1ccc2c3c1OC1[C@@H](O)CC[C@@]4(O)[C@@H](C2)N(CC2CCC2)CC[C@]314 (stereo partly drawn) ?
false

is_below(normalized growth, 1) for CSc1cc(C(F)(F)F)cc(SC)c1SC ?
true
